Source listed as paper PMC3267017.

- study-system: MetJ dimer–DNA complex (F-metC) (Escherichia coli, UniProt P0A8U6)
- Sequence (P0A8U6 2-105, one chain of several): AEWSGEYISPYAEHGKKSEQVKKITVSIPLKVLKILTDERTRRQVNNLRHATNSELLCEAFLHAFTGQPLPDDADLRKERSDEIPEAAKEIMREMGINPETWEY
- assay-details: Fluorescence anisotropy assay: MetJ titrated into F-metC DNA and ligand, MetJ dimer–DNA complex formation
- Type: binding
- assay-context: quaternised ligands 2 mM; F-metC 10 nM; average of three titrations; read-out: EC50, concentration of MetJ monomer required to promote half-maximal formation of its complex with the F-metC DNA
What pEC50 was measured for each of the following?
Answer as the number alone; pEC50 is minus log10 of concentration in mol/L.

Request the reported pEC50 associated with CCCNC(=O)CCC[N+](C)(C)C[C@H]1O[C@@H](n2cnc3c(N)ncnc32)[C@H](O)[C@@H]1O [Compound 5, reference compound] 6.82

One more compound: C[N+](C)(CCCC(=O)NCCCCn1nnc2c1CCCCCC2OCCNC(=O)CCC[N+](C)(C)C[C@H]1O[C@@H](n2cnc3c(N)ncnc32)[C@H](O)[C@@H]1O)C[C@H]1O[C@@H](n2cnc3c(N)ncnc32)[C@H](O)[C@@H]1O.[I-].[I-] (stereo partly shown) [Compound 16b] 7.38

One more compound: C[N+](C)(CCCC(=O)NCCCCCCNC(=O)CCC[N+](C)(C)C[C@H]1O[C@@H](n2cnc3c(N)ncnc32)[C@H](O)[C@@H]1O)C[C@H]1O[C@@H](n2cnc3c(N)ncnc32)[C@H](O)[C@@H]1O.[I-].[I-] [Compound 19d] 7.29

One more compound: C[N+](C)(CCCC(=O)NCCCNC(=O)CCC[N+](C)(C)C[C@H]1O[C@@H](n2cnc3c(N)ncnc32)[C@H](O)[C@@H]1O)C[C@H]1O[C@@H](n2cnc3c(N)ncnc32)[C@H](O)[C@@H]1O.[I-].[I-] [Compound 19b] 6.97
